Each recorded value in this set is attributed to patent US5932742A.

Tested on: K562 (ATCC CCL 243): human chronic myelogenous leukemia
Test: In vitro antitumor activity, MTT assay, K562
Format: cell-based
Details: Homo sapiens, K562, 48 h, Table 3, read-out: IC50 (K562)
quantity: IC50 (µg/mL)

I = Nc1ccc(NC(=O)N2CCc3cc(S(=O)(=O)N4CC(c5ccccc5)NC4=O)ccc32)cc1 (stereo not shown)
II = CC(C)NC(=O)N1CCc2cc(S(=O)(=O)N3CC(c4ccccc4)NC3=O)ccc21 (stereo not shown)
III = O=C1NC(c2ccccc2)CN1S(=O)(=O)c1ccc2c(c1)CCN2C(=S)Nc1ccccc1 (stereo not shown)
Task for the reader: place the molecules above in descending order according to recorded IC50. Dear reader, please state the labels in the requested order.
II, III, I
(II: 0.439 µg/mL, III: 0.017 µg/mL, I: 0.004 µg/mL)

====

Tested on: Colo205 (ATCC CCL 222): human colon adenocarcinoma
Experiment: In vitro antitumor activity, MTT assay, Colo205
Format: cell-based
Conditions: Homo sapiens, COLO 205, Table 5, 48 hrs, read-out: IC50 (Colo205)
quantity: IC50 (µg/mL)

compound	IC50 / µg/mL
NCC(=O)Nc1ccc(C(=O)N2CCc3cc(S(=O)(=O)N4C[C@H](c5ccccc5)NC4=O)ccc32)cc1 [Example 67]	0.971

a = O=C(Nc1ccc(Cl)cc1)NS(=O)(=O)c1ccc2c(c1)CCC2 [Sulofenur, reference compound]
b = C[C@H](N)C(=O)Nc1ccc(C(=O)N2CCc3cc(S(=O)(=O)N4C[C@H](c5ccccc5)NC4=O)ccc32)cc1 [Example 66]
c = Nc1ccc(C(=O)N2CCc3cc(S(=O)(=O)N4C[C@H](c5ccccc5)NC4=O)ccc32)cc1 [Example 65]
Sort ascending by IC50. Dear reader, please state the labels in the requested order.
c, b, a

====

System: Colo205 (ATCC CCL 222): human colon adenocarcinoma
Test: In vitro antitumor activity, MTT assay, Colo205
Format: cell-based
Details: Homo sapiens, COLO 205, Table 3, 48 hrs, read-out: IC50 (Col205)
quantity: IC50 (µg/mL)

molecule	IC50 [µg/mL]
CCNC(=O)N1CCc2cc(S(=O)(=O)N3CC(c4ccccc4)NC3=O)ccc21 (centres unmarked) [Example 29]	1

I = COc1ccc(NC(=O)N2CCc3cc(S(=O)(=O)N4CC(c5ccccc5)NC4=O)ccc32)cc1 (centres unmarked) [Example 36]
II = Cc1ccc(NC(=O)N2CCc3cc(S(=O)(=O)N4CC(c5ccccc5)NC4=O)ccc32)cc1 (centres unmarked) [Example 45]
III = COc1ccccc1NC(=O)N1CCc2cc(S(=O)(=O)N3CC(c4ccccc4)NC3=O)ccc21 (centres unmarked) [Example 44]
Sort ascending by IC50. Dear reader, please state the labels in the requested order.
I, III, II

====

System: K562 (ATCC CCL 243): human chronic myelogenous leukemia
Assay: In vitro antitumor activity, MTT assay, K562
Assay type: cell-based
Settings: Homo sapiens, K562, 48 h, Table 3, read-out: IC50 (K562)
quantity: IC50 (µg/mL)

Example compounds with recorded IC50:
compound	numeric value
O=C(NC1CCCCC1)N1CCc2cc(S(=O)(=O)N3CC(c4ccccc4)NC3=O)ccc21 (centres unmarked)	0.0037
CCCNC(=O)N1CCc2cc(S(=O)(=O)N3CC(c4ccccc4)NC3=O)ccc21 (centres unmarked)	0.488
CCCCNC(=S)N1CCc2cc(S(=O)(=O)N3CC(c4ccccc4)NC3=O)ccc21 (centres unmarked)	2.05
CCNC(=O)N1CCc2cc(S(=O)(=O)N3CC(c4ccccc4)NC3=O)ccc21 (centres unmarked)	1
CCCNC(=S)N1CCc2cc(S(=O)(=O)N3CC(c4ccccc4)NC3=O)ccc21 (centres unmarked)	0.337
COc1ccc(NC(=O)N2CCc3cc(S(=O)(=O)N4CC(c5ccccc5)NC4=O)ccc32)cc1 (centres unmarked)	6.92
Cc1ccc(NC(=O)N2CCc3cc(S(=O)(=O)N4CC(c5ccccc5)NC4=O)ccc32)cc1 (centres unmarked)	1.03
CNC(=S)N1CCc2cc(S(=O)(=O)N3CC(c4ccccc4)NC3=O)ccc21 (centres unmarked)	0.00452

1 = O=C(Nc1ccc(Cl)cc1)NS(=O)(=O)c1ccc2c(c1)CCC2 [Sulofenur, reference compound]
2 = COc1ccccc1NC(=O)N1CCc2cc(S(=O)(=O)N3CC(c4ccccc4)NC3=O)ccc21 (centres unmarked)
Compare IC50: is it lower for 1 or for 2 ? Output the label that corresponds to your choice.
2

P = O=C1NC(c2ccccc2)CN1S(=O)(=O)c1ccc2c(c1)CCN2C(=S)Nc1ccc(F)cc1 (centres unmarked)
Q = COc1ccc(NC(=S)N2CCc3cc(S(=O)(=O)N4CC(c5ccccc5)NC4=O)ccc32)cc1 (centres unmarked)
R = CCNC(=S)N1CCc2cc(S(=O)(=O)N3CC(c4ccccc4)NC3=O)ccc21 (centres unmarked)
Sort the 3 compounds by IC50; largest first, smallest last. Dear reader, please state the labels in the requested order.
P, Q, R
(P: 3.94 µg/mL, Q: 1.28 µg/mL, R: 0.567 µg/mL)
